B1: TPR 5TU (parent)
chain: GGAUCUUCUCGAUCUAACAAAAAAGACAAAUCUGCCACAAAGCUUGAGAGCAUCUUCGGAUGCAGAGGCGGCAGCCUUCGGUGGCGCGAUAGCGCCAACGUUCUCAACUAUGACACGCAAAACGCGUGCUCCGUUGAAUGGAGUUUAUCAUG

# Variants of: B1
# testName: polymerase ribozyme fitness, log enrichment relative to wild type (log ratio); higher = more active; in vitro selection for triplet polymerase activity
Variants at the floor of the assay were thinned out.
polymerase ribozyme fitness (log ratio) for assorted variants

Look over these answered cases.
Lookup: Tell me polymerase ribozyme fitness (log ratio) reported for A52C C54U U78A C87U U135A
Found: ≤ -4.2

Lookup: Entry G50A A73U C96G A98U A120U A137G needs its polymerase ribozyme fitness (log ratio) filled in; supply it.
Found: ≤ -4.2

Lookup: Write down polymerase ribozyme fitness (log ratio) measured for item A30C C95G A119U C132U
Found: ≤ -4.2

Continuing:
Lookup: Item C38G A49C C76G C93U C125A U135A G143C U144A : provide polymerase ribozyme fitness (log ratio)
Found: ≤ -4.2
